pEC50 values, listed per item
Test system: PC12 mHTTQ103 cells
Experiment: Rescue of PC12 cells from mHTTQ103-induced cell death
Type: cell-based, rat
Conditions: Rattus norvegicus, PC-12; rescue from mHTTQ103 induced cell death; read-out: PC12 cells EC50
Notebook: values listed as pEC50 are -log10 of the concentration (mol/L).

C#CCn1sc2ccccc2c1=O [LC-66]    6.12
O=C(C1CC1)N1CCN(Cn2sc3ccc(Cl)cc3c2=O)CC1 [LC-15]    6.31

# context switch: different compound, same pEC50
Find the recorded pEC50 belonging to C[C@H](c1ccccc1)n1sc2ccccc2c1=O [LC-29] and report it. 6.17
